# TARGET_UNDER_TEST: SARM1 (50-724) (Homo sapiens)
# PROTOCOL_DETAILS: biochemical
PARAMETER_MEASURED: IC50

Please review the entries below; each comes with its answer.
- COMPOUND: "CC(Nc1ccc2nc[nH]c(=O)c2n1)c1c(Cl)ccc(F)c1Cl (single isomer, unassigned) [Compound 383]"
  TARGET_UNDER_TEST: "SARM1 (50-724) (Homo sapiens)"
  PARAMETER_MEASURED: "IC50"
  ASSAY_VALUE: "> 1000 nM"
- COMPOUND: "CC(Nc1ccc2cn[nH]c(=O)c2c1)c1cc(F)cc(Cl)c1Cl (racemic)"
  TARGET_UNDER_TEST: "SARM1 (50-724) (Homo sapiens)"
  PARAMETER_MEASURED: "IC50"
  ASSAY_VALUE: "100 to 500 nM"
- COMPOUND: "O=C1NC(CO)CCc2ccc(NS(=O)(=O)c3cccc(Cl)c3Cl)cc21 (racemic) [Compound 304A]"
  TARGET_UNDER_TEST: "SARM1 (50-724) (Homo sapiens)"
  PARAMETER_MEASURED: "IC50"
  ASSAY_VALUE: "< 100 nM"

Per the records, this compound ( CC(Nc1ccc2ccn(Cc3ccccc3)c(=O)c2c1)c1cccc(Cl)c1Cl (racemic) ) has IC50 equal to 500 to 1000 nM

---

# TARGET_UNDER_TEST: SARM1 (50-724) (Homo sapiens, UniProt Q6SZW1)
# Sequence (Q6SZW1 50-724): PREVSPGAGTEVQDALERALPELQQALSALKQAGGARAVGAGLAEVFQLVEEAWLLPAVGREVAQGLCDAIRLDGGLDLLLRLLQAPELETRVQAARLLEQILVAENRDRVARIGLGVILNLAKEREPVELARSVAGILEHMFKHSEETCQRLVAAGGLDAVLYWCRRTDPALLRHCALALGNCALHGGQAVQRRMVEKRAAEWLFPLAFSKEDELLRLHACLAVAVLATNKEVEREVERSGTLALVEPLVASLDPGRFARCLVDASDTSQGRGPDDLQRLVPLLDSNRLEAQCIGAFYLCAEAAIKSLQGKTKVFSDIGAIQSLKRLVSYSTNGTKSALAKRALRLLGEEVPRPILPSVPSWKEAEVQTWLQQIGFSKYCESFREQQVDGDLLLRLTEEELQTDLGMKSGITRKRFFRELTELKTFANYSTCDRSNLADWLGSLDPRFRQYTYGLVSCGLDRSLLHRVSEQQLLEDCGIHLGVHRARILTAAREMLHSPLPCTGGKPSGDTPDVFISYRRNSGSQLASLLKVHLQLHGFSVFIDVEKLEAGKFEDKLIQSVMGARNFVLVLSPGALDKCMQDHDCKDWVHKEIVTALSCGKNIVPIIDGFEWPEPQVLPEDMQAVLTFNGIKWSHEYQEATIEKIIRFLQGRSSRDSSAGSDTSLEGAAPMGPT
# PROTOCOL_DETAILS: biochemical
PARAMETER_MEASURED: IC50

Please review the entries below; each comes with its answer.
- COMPOUND: "Cc1c2c(F)cc(NC(C)c3c(F)ccc(Cl)c3Cl)cc2nn1CC(N)=O (racemic)"
  IC50: "< 100 nM"
- COMPOUND: "COc1ncc(C(C)Nc2ccc3cc[nH]c(=O)c3c2)cc1Cl (racemic)"
  IC50: "100 to 500 nM"
- COMPOUND: "CC(Nc1cc(F)c2nc[nH]c(=O)c2c1)c1nc(Cl)c(Cl)s1 (racemic)"
  IC50: "< 100 nM"
- COMPOUND: "Cc1ccc(S(=O)(=O)Nc2ccc3c(c2)C(=O)NCC3)c(C)c1"
  IC50: "> 1000 nM"
- COMPOUND: "O=S(=O)(Nc1ccc2ccccc2c1)c1cccc(Cl)c1Cl"
  IC50: "100 to 500 nM"
- COMPOUND: "CC(Nc1ccc2cc[nH]c(=O)c2c1)c1cccc(F)c1Cl (racemic)"
  IC50: "100 to 500 nM"
- COMPOUND: "O=C1NCCc2ccc(NS(=O)(=O)c3cccc(Cl)c3Cl)cc21"
  IC50: "< 100 nM"

Per the records, this compound ( Cc1c2ccc(NC(C)c3snc(Cl)c3Cl)cc2nn1CC(N)=O (single isomer, unassigned) [Compound 341A] ) has IC50 equal to < 100 nM

---

// reported pIC50 per item
# TARGET_UNDER_TEST: SARM1 (50-724) (Homo sapiens)
# PROTOCOL_DETAILS: biochemical
pIC50: −log10 of the molar value.

Please review the entries below; each comes with its answer.
- COMPOUND: "CC(Nc1cc(F)c2ncn(C3CC(O)C3)c(=O)c2c1)c1nc(Cl)c(Cl)s1 (centres unmarked)"
  pIC50: "> 7.00"
- COMPOUND: "CC1Cc2ccc(NS(=O)(=O)c3cccc(Cl)c3Cl)cc2C(=O)N1 (centres unmarked)"
  pIC50: "6.30 to 7.00"

Per the records, this compound ( CC(Nc1ccc2c(c1)NC(=O)CC2)c1cccc(Cl)c1Cl (racemic) ) has pIC50 equal to 6.00 to 6.30

Per the records, this compound ( CC(Nc1ccc2c(C(F)(F)F)n(CC(N)=O)nc2c1)c1nc(Cl)c(Cl)s1 (racemic) [Compound 366] ) has pIC50 equal to > 7.00

Per the records, this compound ( CC(Nc1ccc2cc[nH]c(=O)c2n1)c1cc(F)cc(Cl)c1Cl (racemic) ) has pIC50 equal to > 7.00
